Reference source: the supplement of paper PMC11451515

test system: SEM cells; assay: cell viability relative to DMSO control; higher = less cytotoxic; details: RPMI 5 mM glucose + 10% FBS; 48 h; 0.0632 µM
METRIC: cell viability (%)
Number only, in %; omit the unit.

Observe how each entry below is paired with its result.
CN1CCN2c3ncccc3Cc3ccccc3C2C1 (centres undefined) : 114
COc1cc2nc(-c3cc(F)ccc3O)nc(N[C@@H]3CNC[C@H]3C(C)(C)O)c2cc1OC : 90.4
CCCCC(C=O)NC(=O)C(CC(C)C)NC(=O)OCc1ccccc1 (centres undefined) : 110
C[S+](=O)([O-])c1cccc(CNc2nc(Nc3ccc4c(c3)CCC(=O)N4)ncc2C(F)(F)F)c1 : 105
Nc1nc(N)c2nc(-c3cccc(O)c3)c(-c3cccc(O)c3)nc2n1 : 103

Short answer for `CCC(=C/[C@H](C)C/C=C/C(C)=C/[C@@H](C)C(=O)[C@@H](C)[C@H](O)[C@@H](C)C/C(C)=C/C(=O)O)/C=C/[C@@H]1OC(=O)C=C[C@@H]1C` : cell viability was 106

According to the records, this compound `O=C(Cc1ccc(-c2ccc(OCCN3CCOCC3)cc2)cn1)NCc1ccccc1` displays cell viability of 18.9

Measured cell viability, COC(=O)C1C2CC3c4[nH]c5cc(OC)ccc5c4CCN3CC2CC(OC(=O)c2cc(OC)c(OC)c(OC)c2)C1OC (centres undefined) : 113

Form: compound = `O=C(Nc1ncc(SCCN2CCCC2)s1)[C@]1(c2ccc([S+](=O)([O-])C3CC3)cc2)C[C@H]1C1CCCCC1` ; cell viability = 120
